Recorded values, source patent US10065941B2.

Here, each record is paired with measured IC50 data.
target: human P2X3 receptor (Homo sapiens (Human), UniProt P56373); assay: Evaluation of human P2X3 receptor inhibitory activity (Test Example 1); format: cell-based; settings: C6BU-1 cell transfected with human P2X3 receptor gene, FLIPR 384
Sequence (P56373 whole entry): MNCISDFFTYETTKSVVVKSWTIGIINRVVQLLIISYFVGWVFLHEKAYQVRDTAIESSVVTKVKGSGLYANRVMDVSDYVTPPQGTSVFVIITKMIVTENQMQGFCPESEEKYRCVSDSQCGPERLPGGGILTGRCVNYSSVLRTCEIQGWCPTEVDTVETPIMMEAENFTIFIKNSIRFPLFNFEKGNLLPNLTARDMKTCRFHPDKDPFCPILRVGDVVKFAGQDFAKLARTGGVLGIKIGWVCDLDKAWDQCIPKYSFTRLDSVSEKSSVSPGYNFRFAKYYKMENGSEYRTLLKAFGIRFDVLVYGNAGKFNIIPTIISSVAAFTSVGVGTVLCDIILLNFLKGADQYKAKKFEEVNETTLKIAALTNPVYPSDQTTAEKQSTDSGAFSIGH

{"SMILES CODE": "CC(C)(Cn1c(=O)[nH]/c(=N\\c2ccc(N3CCCCC3)c(F)c2)n(Cc2ccc(Cl)cc2)c1=O)C(=O)O", "SYSTEM UNDER TEST": "human P2X3 receptor (Homo sapiens (Human), UniProt P56373)", "IC50": "51 nM"}
{"SMILES CODE": "COC(=O)[C@H](C)[C@H](C)n1c(=O)[nH]/c(=N\\c2ccc(Oc3cccc(Cl)n3)cc2)n(Cc2ccc(Cl)cc2)c1=O", "SYSTEM UNDER TEST": "human P2X3 receptor (Homo sapiens (Human), UniProt P56373)", "IC50": "58 nM"}
{"SMILES CODE": "CCn1c(=O)[nH]/c(=N\\c2ccc(Oc3ccc(Cl)nc3C#N)cc2)n(Cc2ccc(Cl)cc2)c1=O", "SYSTEM UNDER TEST": "human P2X3 receptor (Homo sapiens (Human), UniProt P56373)", "IC50": "48 nM"}
{"SMILES CODE": "COc1nccc(Oc2ccc(/N=c3\\[nH]c(=O)n(C[C@H](C)C(=O)O)c(=O)n3Cc3ccc(Cl)cc3)cc2)n1", "SYSTEM UNDER TEST": "human P2X3 receptor (Homo sapiens (Human), UniProt P56373)", "IC50": "7 nM"}
{"SMILES CODE": "Cc1cc(/N=c2\\[nH]c(=O)n(C[C@H](C)C(=O)O)c(=O)n2Cc2ccc(Cl)s2)ccc1Oc1ncccc1F", "SYSTEM UNDER TEST": "human P2X3 receptor (Homo sapiens (Human), UniProt P56373)", "IC50": "19 nM"}
{"SMILES CODE": "C[C@@H](Cn1c(=O)[nH]/c(=N\\c2ccc(Oc3ccnc(Cl)c3)cc2)n(Cc2ccc(Cl)cc2)c1=O)C(=O)O", "SYSTEM UNDER TEST": "human P2X3 receptor (Homo sapiens (Human), UniProt P56373)", "IC50": "6 nM"}
{"SMILES CODE": "CCc1ccc(Oc2ccc(/N=c3\\[nH]c(=O)n(C[C@H](C)C(=O)OC)c(=O)n3Cc3ccc(Cl)cc3)cc2)nc1", "SYSTEM UNDER TEST": "human P2X3 receptor (Homo sapiens (Human), UniProt P56373)", "IC50": "8 nM"}
{"SMILES CODE": "COC(=O)[C@@H](C)Cn1c(=O)[nH]/c(=N\\c2ccc(Oc3cncc(Cl)c3)cc2)n(Cc2ccc(Cl)cc2)c1=O", "SYSTEM UNDER TEST": "human P2X3 receptor (Homo sapiens (Human), UniProt P56373)", "IC50": "11 nM"}
{"SMILES CODE": "O=c1[nH]/c(=N\\c2ccc(Oc3ccccn3)cc2)n(Cc2ccc(Cl)cc2)c(=O)n1CCCO", "SYSTEM UNDER TEST": "human P2X3 receptor (Homo sapiens (Human), UniProt P56373)", "IC50": "5 nM"}
{"SMILES CODE": "C=C(CO)Cn1c(=O)[nH]/c(=N\\c2ccc(Oc3ccccn3)cc2)n(Cc2ccc(Cl)cc2)c1=O", "SYSTEM UNDER TEST": "human P2X3 receptor (Homo sapiens (Human), UniProt P56373)", "IC50": "3 nM"}
{"SMILES CODE": "COc1cc(Oc2ccc(/N=c3\\[nH]c(=O)n(C[C@H](C)C(=O)O)c(=O)n3Cc3ccc(Cl)cc3)cc2)ncn1", "SYSTEM UNDER TEST": "human P2X3 receptor (Homo sapiens (Human), UniProt P56373)", "IC50": "14 nM"}
{"SMILES CODE": "C[C@@H](Cn1c(=O)[nH]/c(=N\\c2ccc(Oc3ccccn3)c(Cl)c2)n(Cc2ccc(Cl)cc2)c1=O)C(=O)O", "SYSTEM UNDER TEST": "human P2X3 receptor (Homo sapiens (Human), UniProt P56373)", "IC50": "7 nM"}
{"SMILES CODE": "CC(C)Oc1ccc(/N=c2\\[nH]c(=O)n([C@H]3C[C@H](C(=O)O)C3)c(=O)n2Cc2ccc(Cl)cc2)cc1Cl", "SYSTEM UNDER TEST": "human P2X3 receptor (Homo sapiens (Human), UniProt P56373)", "IC50": "15 nM"}
{"SMILES CODE": "COC(=O)[C@H](C)Cn1c(=O)[nH]/c(=N\\c2ccc(Oc3ccccn3)cc2)n(Cc2ccc(C)cc2)c1=O", "SYSTEM UNDER TEST": "human P2X3 receptor (Homo sapiens (Human), UniProt P56373)", "IC50": "3 nM"}
{"SMILES CODE": "CC(C)(Cn1c(=O)[nH]/c(=N\\c2ccc(Oc3cc(F)nc(F)c3)cc2)n(Cc2ccc(Cl)cc2)c1=O)C(=O)O", "SYSTEM UNDER TEST": "human P2X3 receptor (Homo sapiens (Human), UniProt P56373)", "IC50": "7 nM"}
{"SMILES CODE": "C[C@@H](Cn1c(=O)[nH]/c(=N\\c2ccc(Oc3cnc(Cl)cn3)cc2)n(Cc2ccc(Cl)cc2)c1=O)C(=O)O", "SYSTEM UNDER TEST": "human P2X3 receptor (Homo sapiens (Human), UniProt P56373)", "IC50": "5 nM"}
{"SMILES CODE": "COC(=O)CCn1c(=O)[nH]/c(=N\\c2ccc(Oc3ccccn3)c(C)c2)n(Cc2ccc(Cl)cc2)c1=O", "SYSTEM UNDER TEST": "human P2X3 receptor (Homo sapiens (Human), UniProt P56373)", "IC50": "6 nM"}
{"SMILES CODE": "CCc1oc2ccc(/N=c3\\[nH]c(=O)n(C[C@H](C)C(=O)OC)c(=O)n3Cc3ccc(C)cc3)cc2c1C", "SYSTEM UNDER TEST": "human P2X3 receptor (Homo sapiens (Human), UniProt P56373)", "IC50": "22 nM"}
{"SMILES CODE": "COC(=O)[C@@H](C)Cn1c(=O)[nH]/c(=N\\c2ccc(Oc3ccc(C(C)=O)cn3)cc2)n(Cc2ccc(C)cc2)c1=O", "SYSTEM UNDER TEST": "human P2X3 receptor (Homo sapiens (Human), UniProt P56373)", "IC50": "3 nM"}
{"SMILES CODE": "Cc1cnc(Oc2ccc(/N=c3\\[nH]c(=O)n(CC(C)(C)C(=O)O)c(=O)n3Cc3ccc(Cl)cc3)cc2)s1", "SYSTEM UNDER TEST": "human P2X3 receptor (Homo sapiens (Human), UniProt P56373)", "IC50": "8 nM"}
{"SMILES CODE": "O=C(O)C[C@H](O)Cn1c(=O)[nH]/c(=N\\c2ccc(Oc3ccc(F)cn3)cc2)n(Cc2ccc(Cl)cc2)c1=O", "SYSTEM UNDER TEST": "human P2X3 receptor (Homo sapiens (Human), UniProt P56373)", "IC50": "72 nM"}
{"SMILES CODE": "Cc1ccc(Cn2c(=O)n(CCCC(=O)O)c(=O)[nH]/c2=N\\c2ccc(Oc3ncccc3F)cc2)cc1", "SYSTEM UNDER TEST": "human P2X3 receptor (Homo sapiens (Human), UniProt P56373)", "IC50": "14 nM"}
{"SMILES CODE": "COCc1ccc(Oc2ccc(/N=c3\\[nH]c(=O)n(C[C@H](C)C(=O)O)c(=O)n3Cc3ccc(C)cc3)cc2)nc1", "SYSTEM UNDER TEST": "human P2X3 receptor (Homo sapiens (Human), UniProt P56373)", "IC50": "6 nM"}
{"SMILES CODE": "COC(=O)[C@@H](C)Cn1c(=O)[nH]/c(=N\\c2ccc(Oc3ncc(C)s3)cc2)n(Cc2ccc(Cl)cc2)c1=O", "SYSTEM UNDER TEST": "human P2X3 receptor (Homo sapiens (Human), UniProt P56373)", "IC50": "10 nM"}
{"SMILES CODE": "COc1cccnc1Oc1ccc(/N=c2\\[nH]c(=O)n(C[C@H](C)C(=O)O)c(=O)n2Cc2ccc(Cl)cc2)cc1", "SYSTEM UNDER TEST": "human P2X3 receptor (Homo sapiens (Human), UniProt P56373)", "IC50": "12 nM"}
{"SMILES CODE": "COC(=O)C[C@@H](C)n1c(=O)[nH]/c(=N\\c2ccc(Oc3ccccn3)cc2)n(Cc2ccc(C)cc2)c1=O", "SYSTEM UNDER TEST": "human P2X3 receptor (Homo sapiens (Human), UniProt P56373)", "IC50": "5 nM"}
